target: Hepatitis C virus serine protease, NS3/NS4A (Hepatitis C virus, UniProt D2K2A8+A3EZI9); experiment: Inhibition of hepatitis c virus Non structural protein 3 protease/Non structural protein 4A protease
Sequence (D2K2A8 whole entry): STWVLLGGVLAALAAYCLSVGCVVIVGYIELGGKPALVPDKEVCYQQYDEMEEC
Sequence (A3EZI9 whole entry): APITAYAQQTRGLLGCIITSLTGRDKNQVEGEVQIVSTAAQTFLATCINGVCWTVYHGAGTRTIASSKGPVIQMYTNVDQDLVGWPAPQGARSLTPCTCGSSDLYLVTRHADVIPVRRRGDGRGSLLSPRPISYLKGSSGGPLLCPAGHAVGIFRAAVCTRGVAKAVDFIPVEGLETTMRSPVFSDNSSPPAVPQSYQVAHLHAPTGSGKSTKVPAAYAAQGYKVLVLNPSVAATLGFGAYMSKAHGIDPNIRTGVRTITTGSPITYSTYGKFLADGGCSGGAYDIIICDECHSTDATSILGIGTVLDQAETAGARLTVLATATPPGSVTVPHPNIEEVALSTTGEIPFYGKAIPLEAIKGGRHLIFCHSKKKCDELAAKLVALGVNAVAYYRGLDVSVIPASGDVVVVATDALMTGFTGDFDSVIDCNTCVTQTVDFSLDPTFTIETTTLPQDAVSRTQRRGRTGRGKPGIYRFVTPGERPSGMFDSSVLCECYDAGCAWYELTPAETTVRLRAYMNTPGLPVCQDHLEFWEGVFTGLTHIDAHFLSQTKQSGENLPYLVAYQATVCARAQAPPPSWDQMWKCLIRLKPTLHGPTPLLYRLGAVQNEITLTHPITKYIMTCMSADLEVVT
pIC50: −log10 of the molar value. *1 amine or outer side, *2 acyl side, *3 side chain or, on linkers, in order; H or OH if unused. Where a SMILES comes first, the peptide text is derived from it. [ ]: non-standard residue; d: D form. The star is where a group is joined. X1 = O=C(C(=O)[*:2])[C@H](CC(F)(F)F)N[*:1]; NH(1R-phenylethyl) = C[C@@H](N*)c1ccccc1; NH(1S-phenylethyl) = C[C@H](N*)c1ccccc1; Phe(2-Me) = Cc1ccccc1C[C@H](N)C(=O)O; NH(4-OH-benzyl) = Oc1ccc(CN*)cc1; X6 = C[C@H](N*)c1ccc2ccccc2c1; Suc = O=C(CCC(=O)[*:2])[*:1]; Tle = CC(C)(C)[C@H](N)C(=O)O; NHBn = c1ccc(CN*)cc1
Please use y whenever pIC50 is not below 8, and n whenever it is.

Worked set:
compound="Cc1ccccc1C[C@H](NC(=O)[C@H](CCC(=O)O)NC(=O)[C@H](CC(=O)O)NC(=O)CCC(=O)O)C(=O)N[C@H](C(=O)N[C@@H](CC(C)C)C(=O)N[C@@H](CC(F)(F)F)C(=O)C(=O)NCc1ccccc1)C(C)(C)C (Suc-DE[Phe(2-Me)][Tle]L[X1]-NHBn)" classname=y
compound="Cc1ccccc1C[C@H](NC(=O)[C@H](CCC(=O)O)NC(=O)[C@H](CC(=O)O)NC(=O)CCC(=O)O)C(=O)N[C@H](C(=O)N[C@@H](CC(C)C)C(=O)N[C@@H](CC(F)(F)F)C(=O)C(=O)N[C@H](C)c1ccccc1)C(C)(C)C (Suc-DE[Phe(2-Me)][Tle]L[X1]-{NH(1R-phenylethyl)})" classname=n
compound="Cc1ccccc1C[C@H](NC(=O)[C@H](CCC(=O)O)NC(=O)[C@H](CC(=O)O)NC(=O)CCC(=O)O)C(=O)N[C@H](C(=O)N[C@@H](CC(C)C)C(=O)N[C@@H](CC(F)(F)F)C(=O)C(=O)N[C@@H](C)c1ccccc1)C(C)(C)C (Suc-DE[Phe(2-Me)][Tle]L[X1]-{NH(1S-phenylethyl)})" classname=y

Please indicate if the recorded pIC50 for Cc1ccccc1C[C@H](NC(=O)[C@H](CCC(=O)O)NC(=O)[C@H](CC(=O)O)NC(=O)CCC(=O)O)C(=O)N[C@H](C(=O)N[C@@H](CC(C)C)C(=O)N[C@@H](CC(F)(F)F)C(=O)C(=O)N[C@@H](C)c1ccc2ccccc2c1)C(C)(C)C (Suc-DE[Phe(2-Me)][Tle]L[X1]-X6) meets or exceeds 8.
y

Is it the case that Cc1ccccc1C[C@H](NC(=O)[C@H](CCC(=O)O)NC(=O)[C@H](CC(=O)O)NC(=O)CCC(=O)O)C(=O)N[C@H](C(=O)N[C@@H](CC(C)C)C(=O)N[C@@H](CC(F)(F)F)C(=O)C(=O)NCc1ccc(O)cc1)C(C)(C)C (Suc-DE[Phe(2-Me)][Tle]L[X1]-{NH(4-OH-benzyl)}) has pIC50 reaching or exceeding 8?
y

* * *

molecular target: Hepatitis C virus serine protease, NS3/NS4A (Hepatitis C virus, UniProt D2K2A8+A3EZI9); experiment: Inhibition of hepatitis c virus Non structural protein 3 protease/Non structural protein 4A protease
*1 amine or outer side, *2 acyl side, *3 side chain or, on linkers, in order; H or OH if unused. Where a SMILES comes first, the peptide text is derived from it. [ ]: non-standard residue; d: D form. The star is where a group is joined. X1 = O=C(C(=O)[*:2])[C@H](CC(F)(F)F)N[*:1]; NH(1S-phenylpropyl) = CC[C@H](N*)c1ccccc1; Phe(2-Me) = Cc1ccccc1C[C@H](N)C(=O)O; X5 = CC[C@H](N*)c1ccc2ccccc2c1; Suc = O=C(CCC(=O)[*:2])[*:1]; Tle = CC(C)(C)[C@H](N)C(=O)O; X4 = CC(C)[C@H](N*)c1ccccc1; X2 = COc1cccc(CN*)c1
observedProperty: pIC50
# pIC50 = -log10(concentration in molar units)

Take a look at these entries with their results.
compound="Cc1ccccc1C[C@H](NC(=O)[C@H](CCC(=O)O)NC(=O)[C@H](CC(=O)O)NC(=O)CCC(=O)O)C(=O)N[C@H](C(=O)N[C@@H](CC(C)C)C(=O)N[C@@H](CC(F)(F)F)C(=O)C(=O)N[C@H](c1ccccc1)C(C)C)C(C)(C)C (Suc-DE[Phe(2-Me)][Tle]L[X1]-X4)" measuredon="Hepatitis C virus serine protease, NS3/NS4A (Hepatitis C virus, UniProt D2K2A8+A3EZI9)" assayvalue=8.15
compound="COc1cccc(CNC(=O)C(=O)[C@H](CC(F)(F)F)NC(=O)[C@H](CC(C)C)NC(=O)[C@@H](NC(=O)[C@H](Cc2ccccc2C)NC(=O)[C@H](CCC(=O)O)NC(=O)[C@H](CC(=O)O)NC(=O)CCC(=O)O)C(C)(C)C)c1 (Suc-DE[Phe(2-Me)][Tle]L[X1]-X2)" measuredon="Hepatitis C virus serine protease, NS3/NS4A (Hepatitis C virus, UniProt D2K2A8+A3EZI9)" assayvalue=8.22
compound="CC[C@H](NC(=O)C(=O)[C@H](CC(F)(F)F)NC(=O)[C@H](CC(C)C)NC(=O)[C@@H](NC(=O)[C@H](Cc1ccccc1C)NC(=O)[C@H](CCC(=O)O)NC(=O)[C@H](CC(=O)O)NC(=O)CCC(=O)O)C(C)(C)C)c1ccccc1 (Suc-DE[Phe(2-Me)][Tle]L[X1]-{NH(1S-phenylpropyl)})" measuredon="Hepatitis C virus serine protease, NS3/NS4A (Hepatitis C virus, UniProt D2K2A8+A3EZI9)" assayvalue=8.15

Consider now this further compound.
Form entry - test system: Hepatitis C virus serine protease, NS3/NS4A (Hepatitis C virus, UniProt D2K2A8+A3EZI9); read-out: pIC50; compound: CC[C@H](NC(=O)C(=O)[C@H](CC(F)(F)F)NC(=O)[C@H](CC(C)C)NC(=O)[C@@H](NC(=O)[C@H](Cc1ccccc1C)NC(=O)[C@H](CCC(=O)O)NC(=O)[C@H](CC(=O)O)NC(=O)CCC(=O)O)C(C)(C)C)c1ccc2ccccc2c1 (Suc-DE[Phe(2-Me)][Tle]L[X1]-X5)
8.10
